FYI, the data here is from ChEMBL document CHEMBL1909046.

- Target Or Test System: Delta-type opioid receptor (Homo sapiens, UniProt P41143); note: in other assays of this panel Not Active means under 50% inhibition at 10 µM
- Sequence (P41143 whole entry): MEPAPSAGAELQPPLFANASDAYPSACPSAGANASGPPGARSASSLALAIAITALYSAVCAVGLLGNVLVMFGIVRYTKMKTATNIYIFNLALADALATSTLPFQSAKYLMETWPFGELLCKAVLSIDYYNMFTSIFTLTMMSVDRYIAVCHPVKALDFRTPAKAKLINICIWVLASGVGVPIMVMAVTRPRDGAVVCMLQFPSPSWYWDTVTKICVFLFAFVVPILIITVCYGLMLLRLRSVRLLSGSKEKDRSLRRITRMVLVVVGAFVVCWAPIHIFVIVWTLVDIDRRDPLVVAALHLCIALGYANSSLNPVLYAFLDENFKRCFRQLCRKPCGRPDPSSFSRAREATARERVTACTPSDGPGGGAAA
- Type: cell membranes, HEK293, Membrane
- Condition Set: read-out: Ki
Measurement Name: Ki (µM)
Please respond with the number in µM and leave the unit unwritten.

Look up Ki: Clc1ccc(COC(Cn2ccnc2)c2ccc(Cl)cc2Cl)c(Cl)c1 (configuration not stated)
1.19

Need Ki of Cc1c(O)cccc1C(=O)N[C@@H](CSc1ccccc1)[C@H](O)CN1C[C@H]2CCCC[C@H]2C[C@H]1C(=O)NC(C)(C)C , thanks.
23.3

---

- Target Or Test System: Acetylcholinesterase (Homo sapiens)
- Sequence (P22303 whole entry): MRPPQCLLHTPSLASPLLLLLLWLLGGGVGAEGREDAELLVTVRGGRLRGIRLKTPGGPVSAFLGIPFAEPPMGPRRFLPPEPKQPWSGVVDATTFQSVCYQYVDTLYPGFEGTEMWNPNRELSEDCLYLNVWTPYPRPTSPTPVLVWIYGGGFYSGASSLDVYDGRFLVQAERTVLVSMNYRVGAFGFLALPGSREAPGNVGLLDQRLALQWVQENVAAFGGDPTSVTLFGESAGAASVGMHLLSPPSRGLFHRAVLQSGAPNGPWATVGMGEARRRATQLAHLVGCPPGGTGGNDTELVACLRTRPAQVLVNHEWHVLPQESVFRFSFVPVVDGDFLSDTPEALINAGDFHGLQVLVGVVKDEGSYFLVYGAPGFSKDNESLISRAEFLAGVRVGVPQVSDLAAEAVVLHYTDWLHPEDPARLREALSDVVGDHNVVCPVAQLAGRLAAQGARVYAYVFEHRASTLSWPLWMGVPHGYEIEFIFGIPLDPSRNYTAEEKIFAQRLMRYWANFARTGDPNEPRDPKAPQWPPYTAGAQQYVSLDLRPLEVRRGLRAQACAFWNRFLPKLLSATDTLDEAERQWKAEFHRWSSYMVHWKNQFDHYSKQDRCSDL
- Procedure Text: DRUGMATRIX: Acetylcholinesterase enzyme inhibition (substrate: acetylthiocholine)
- Format: cell-based, HEK293
- Condition Set: hek293; Not Active = under 50% inhibition at 10 µM
Measurement Name: IC50

# annotated cases, reported IC50 shown
* O=C(O)COc1ccc(C(=O)c2cccs2)c(Cl)c1Cl | Not Active
* CN(C)CCC=C1c2ccccc2CCc2ccccc21 [AMITRIPTYLINE] | Not Active
* C[C@@](Cc1ccc(O)c(O)c1)(NN)C(=O)O.O [CARBIDOPA] | Not Active
* C[N+](C)(C)C[C@H](O)CC(=O)[O-] [LEVOCARNITINE] | Not Active
* CN(C)C(=N)NC(=N)N [METFORMIN] | Not Active

Here is the next item to consider.
API: value(readout= IC50, system= Acetylcholinesterase (Homo sapiens), query= CCOC(=O)c1ncn2c1CN(C)C(=O)c1cc(F)ccc1-2 [FLUMAZENIL] )
Not Active
